# Tested on: RPMI-8226
# protocol.notes: cells
# settings: Homo sapiens, RPMI-8226, 48 h
Rule: GI50 below 3 µM gives true, anything at or above gives false.

Some entries whose results are on file:
# molecule, answer.label
records = [
    ("COc1cc(/C=C/C(=O)c2ccc(S(=O)(=O)NCCNc3nc(Nc4ccc(F)cc4)nc(N(C)C)n3)cc2)cc(OC)c1OC [24d]", "true"),
    ("CN(C)c1nc(NCCNS(=O)(=O)c2ccc(C(=O)/C=C/c3ccccc3)cc2)nc(N2CCOCC2)n1 [23a]", "false"),
    ("CN(C)c1nc(NCCNS(=O)(=O)c2ccc(C(=O)/C=C/c3ccc(C(F)(F)F)cc3)cc2)nc(N2CCOCC2)n1 [23g]", "true"),
    ("Cc1ccc(/C=C/C(=O)c2ccc(S(=O)(=O)NCCNc3nc(Nc4ccc(F)cc4)nc(N(C)C)n3)cc2)cc1 [24b]", "true"),
    ("COc1cc(/C=C/C(=O)c2ccc(S(=O)(=O)NCCNc3nc(N(C)C)nc(N4CCOCC4)n3)cc2)cc(OC)c1OC [23d]", "true"),
    ("COc1cc(/C=C/C(=O)c2ccccc2)ccc1Oc1nc(Nc2ccc(F)cc2)nc(N(C)C)n1 [21a]", "true"),
]

Turning to the following molecule.
GI50 under 3 µM? Item: COc1cc(C2CC(c3ccc(Cl)cc3)=Nc3c(N)nc(N)nc3N2)ccc1Oc1nc(Nc2ccc(F)cc2)nc(N(C)C)n1 (centres unmarked) [29e]
false
